Taken from patent US20120115848A1.

# Target Of Assay: PLK2 (Homo sapiens)
# Construct: GST (N)
# Measurement Protocol: PLK TR-FRET peptide assay (PLK2)
# Type: biochemical
# Assay Conditions: comparison with analogous compounds of WO 2011/079118
Readout Label: IC50 (nM)

1) CC[C@@H]1c2nncn2-c2cnc(-n3ccnc3-c3ccccc3)nc2N1C1CCC1 :: 8.5
2) CC[C@@H]1c2nncn2-c2cnc(-n3ccnc3-c3ccc(F)cc3)nc2N1C1CCC1 [Example 7] :: 40
3) CC[C@@H]1c2nncn2-c2cnc(-n3ccnc3-c3ccc(F)cc3)nc2N1C1CCC1 [PCT Example 50, reference compound] :: 20
4) CC[C@@H]1c2nncn2-c2cnc(-n3ccnc3-c3ccccc3F)nc2N1C1CCC1 :: 6
5) CC[C@@H]1C(=O)N(C)c2cnc(-n3ccnc3-c3ccc(F)c(F)c3)nc2N1C1CCC1 [PCT Example 48, reference compound] :: 39
6) CC[C@@H]1c2nncn2-c2cnc(-n3ccnc3-c3ccc(F)c(F)c3)nc2N1C1CCC1 :: 92
7) CC[C@@H]1C(=O)N(C)c2cnc(-n3ccnc3-c3ccccc3F)nc2N1C1CCC1 [PCT Example 49, reference compound] :: 4.5
8) CC[C@@H]1C(=O)N(C)c2cnc(-n3ccnc3-c3ccccc3)nc2N1C1CCC1 [PCT Example 47, reference compound] :: 7

---

# Target Of Assay: PLK2 (Homo sapiens, UniProt Q9NYY3)
# Construct: GST (N)
# Sequence (Q9NYY3 whole entry): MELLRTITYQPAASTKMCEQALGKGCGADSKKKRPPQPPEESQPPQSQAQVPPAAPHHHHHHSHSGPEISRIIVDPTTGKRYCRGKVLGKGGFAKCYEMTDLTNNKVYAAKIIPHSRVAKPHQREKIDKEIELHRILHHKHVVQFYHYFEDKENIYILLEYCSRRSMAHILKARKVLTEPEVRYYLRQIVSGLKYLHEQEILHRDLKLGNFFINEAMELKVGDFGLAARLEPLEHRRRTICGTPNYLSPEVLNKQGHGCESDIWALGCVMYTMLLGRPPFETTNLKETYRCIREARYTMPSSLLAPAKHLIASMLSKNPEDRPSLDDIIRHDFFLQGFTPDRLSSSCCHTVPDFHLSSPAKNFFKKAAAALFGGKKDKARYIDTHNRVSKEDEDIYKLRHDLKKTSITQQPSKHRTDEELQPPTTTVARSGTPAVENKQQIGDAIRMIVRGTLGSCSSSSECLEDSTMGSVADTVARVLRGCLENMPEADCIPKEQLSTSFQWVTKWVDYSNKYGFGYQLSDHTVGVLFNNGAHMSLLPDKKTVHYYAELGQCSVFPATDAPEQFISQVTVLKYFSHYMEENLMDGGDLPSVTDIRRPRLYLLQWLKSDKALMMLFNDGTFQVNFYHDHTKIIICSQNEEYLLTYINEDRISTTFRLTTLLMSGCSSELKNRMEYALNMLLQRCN
# Measurement Protocol: PLK TR-FRET peptide assay (PLK2)
# Assay type: biochemical
# Assay Conditions: comparison with analogous compounds of WO 2011/079118
# Method: Compounds as described herein (compounds of Formula I, e.g., compounds of the above Examples) are tested for their in vitro kinase activities using various PLK assays. An exemplary assay procedure is described below. (1) Test compound solution preparation: prepare 4× compound solution in PLK assay buffer (50 mM HEPES, 10 mM MgCl2, 1 mM EGTA, 0.01% Tween-20, pH7.4). […] Time for 1 h before reading on Envision at 665 nm/615 nm. […]
Overview of reported ratio Plk2 IC50 / Plk1 IC50 (selectivity relative to PLK1) across a group of compounds:
Readout Label: ratio Plk2 IC50 / Plk1 IC50 (selectivity relative to PLK1)

1. CC[C@@H]1c2nncn2-c2cnc(-n3ccnc3-c3ccc(F)cc3)nc2N1C1CCC1 [Example 7] :: 0.0064
2. CC[C@@H]1c2nncn2-c2cnc(-n3ccnc3-c3ccccc3)nc2N1C1CCC1 [Example 3] :: 0.019
3. CC[C@@H]1c2nncn2-c2cnc(-n3ccnc3-c3ccccc3F)nc2N1C1CCC1 [Example 5] :: 0.019
4. CC[C@@H]1C(=O)N(C)c2cnc(-n3ccnc3-c3ccccc3F)nc2N1C1CCC1 [PCT Example 49, reference compound] :: 0.058
5. CC[C@@H]1C(=O)N(C)c2cnc(-n3ccnc3-c3ccc(F)c(F)c3)nc2N1C1CCC1 [PCT Example 48, reference compound] :: 0.011
6. CC[C@@H]1c2nncn2-c2cnc(-n3ccnc3-c3ccc(F)c(F)c3)nc2N1C1CCC1 [Example 1] :: 0.0063
7. CC[C@@H]1C(=O)N(C)c2cnc(-n3ccnc3-c3ccccc3)nc2N1C1CCC1 [PCT Example 47, reference compound] :: 0.036

---

# Target Of Assay: PLK1 (Homo sapiens, UniProt P53350)
# Construct: GST (N)
# Sequence (P53350 whole entry): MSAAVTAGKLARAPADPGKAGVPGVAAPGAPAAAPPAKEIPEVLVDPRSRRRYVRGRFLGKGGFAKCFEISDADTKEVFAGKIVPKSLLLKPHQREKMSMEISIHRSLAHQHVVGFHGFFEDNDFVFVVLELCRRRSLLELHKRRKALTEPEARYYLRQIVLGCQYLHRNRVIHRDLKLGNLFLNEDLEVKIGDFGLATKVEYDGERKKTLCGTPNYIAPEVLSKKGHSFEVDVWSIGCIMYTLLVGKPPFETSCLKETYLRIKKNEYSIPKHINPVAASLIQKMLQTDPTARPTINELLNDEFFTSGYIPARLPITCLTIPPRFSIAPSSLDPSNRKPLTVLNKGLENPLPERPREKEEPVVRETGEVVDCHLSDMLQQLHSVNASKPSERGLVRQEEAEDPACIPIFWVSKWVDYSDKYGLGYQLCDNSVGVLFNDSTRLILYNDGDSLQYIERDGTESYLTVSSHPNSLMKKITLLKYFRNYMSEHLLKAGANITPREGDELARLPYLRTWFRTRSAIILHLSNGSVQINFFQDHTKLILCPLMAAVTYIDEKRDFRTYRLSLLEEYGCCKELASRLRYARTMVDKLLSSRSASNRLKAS
# Measurement Protocol: PLK TR-FRET peptide assay (PLK1)
# Type: biochemical
# Assay Conditions: comparison with analogous compounds of WO 2011/079118
pIC50: −log10 of the molar value.
Readout Label: pIC50

1. CC[C@@H]1C(=O)N(C)c2cnc(-n3ccnc3-c3ccccc3)nc2N1C1CCC1 [PCT Example 47, reference compound] :: 6.71
2. CC[C@@H]1c2nncn2-c2cnc(-n3ccnc3-c3ccc(F)cc3)nc2N1C1CCC1 [Example 7] :: 5.20
3. CC[C@@H]1c2nncn2-c2cnc(-n3ccnc3-c3ccc(F)c(F)c3)nc2N1C1CCC1 :: 4.84
4. CC[C@@H]1C(=O)N(C)c2cnc(-n3ccnc3-c3ccccc3F)nc2N1C1CCC1 [PCT Example 49, reference compound] :: 7.11

---

// pIC50 lookup, one value per entry
# Target Of Assay: PLK3 (Homo sapiens, UniProt Q9H4B4)
# Sequence (Q9H4B4 whole entry): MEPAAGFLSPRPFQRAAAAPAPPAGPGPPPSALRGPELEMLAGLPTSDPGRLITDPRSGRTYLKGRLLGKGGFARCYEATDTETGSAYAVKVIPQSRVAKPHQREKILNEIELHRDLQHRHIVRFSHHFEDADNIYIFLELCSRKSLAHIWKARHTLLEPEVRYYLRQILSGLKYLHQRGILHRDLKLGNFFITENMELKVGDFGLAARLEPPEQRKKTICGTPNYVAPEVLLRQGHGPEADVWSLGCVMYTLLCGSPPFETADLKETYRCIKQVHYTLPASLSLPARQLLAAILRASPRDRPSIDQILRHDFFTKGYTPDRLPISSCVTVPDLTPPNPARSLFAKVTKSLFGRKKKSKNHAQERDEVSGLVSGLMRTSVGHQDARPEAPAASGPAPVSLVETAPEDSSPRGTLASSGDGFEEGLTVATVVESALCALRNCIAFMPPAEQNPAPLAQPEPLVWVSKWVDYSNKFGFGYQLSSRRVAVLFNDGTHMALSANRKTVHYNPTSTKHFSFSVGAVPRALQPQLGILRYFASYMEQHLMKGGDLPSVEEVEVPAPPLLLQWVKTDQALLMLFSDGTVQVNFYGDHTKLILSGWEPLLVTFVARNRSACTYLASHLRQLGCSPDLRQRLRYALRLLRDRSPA
pIC50: −log10 of the molar value.
Readout Label: pIC50

1. CC[C@@H]1c2nncn2-c2cnc(-n3ccnc3-c3ccc(F)cc3)nc2N1C1CCC1 :: 4.30 to 5.00
2. CC[C@@H]1c2nncn2-c2cnc(-n3ccnc3-c3ccccc3)nc2N1C1CCC1 :: 5.00 to 6.00

---

# Target Of Assay: PLK1 (Homo sapiens)
# Construct: GST (N)
# Measurement Protocol: PLK TR-FRET peptide assay (PLK1)
# Format: biochemical
# Assay Conditions: PLK TR-FRET peptide assay, class symbols
Entries and their IC50 values follow.
Readout Label: IC50

1. CC[C@@H]1c2nncn2-c2cnc(-n3ccnc3-c3ccc(F)cc3F)nc2N1C1CCC1 [Example 11] :: 1000 to 10000 nM
2. CC[C@@H]1c2nncn2-c2cnc(-n3ccnc3-c3ccc(F)c(F)c3)nc2N1C1CCC1 [Example 1] :: 10000 to 50000 nM
3. CC[C@@H]1c2nncn2-c2cnc(-n3ccnc3-c3ccc(F)cc3)nc2N1C1CCC1 [Example 7] :: 1000 to 10000 nM
4. CC[C@@H]1c2nncn2-c2cnc(-n3ccnc3-c3cccc(F)c3F)nc2N1C1CCC1 [Example 9] :: < 1000 nM
5. CC[C@@H]1c2nncn2-c2cnc(-n3ccnc3-c3ccccc3)nc2N1C1CCC1 [Example 3] :: < 1000 nM
6. CC[C@@H]1c2nncn2-c2cnc(-c3c[nH]nc3-c3nccs3)nc2N1C1CCC1 [Example 695] :: 1000 to 10000 nM
7. CC[C@@H]1c2nncn2-c2cnc(-n3ccnc3-c3ccccc3F)nc2N1C1CCC1 [Example 5] :: < 1000 nM

---

// pIC50 lookup, one value per entry
# System: HEK-293 cells expressing α-synuclein and PLK2
# Measurement Protocol: 293-Syn/PLK2 cell assay (ratio of p-Ser-129 α-synuclein to total synuclein, ELISA)
# Assay type: cell-based
# Assay Conditions: Homo sapiens, HEK293; HEK-293 cells expressing α-synuclein and PLK2; ratio of phosphorylated synuclein to total synuclein
pIC50: −log10 of the molar value.
Readout Label: pIC50

1. CC[C@@H]1c2nncn2-c2cnc(-n3ccnc3-c3ccccc3F)nc2N1C1CCC1 [Example 5] :: 6.36
2. CC[C@@H]1C(=O)N(C)c2cnc(-n3ccnc3-c3ccccc3)nc2N1C1CCC1 [PCT Example 47, reference compound] :: 6.17
3. CC[C@@H]1C(=O)N(C)c2cnc(-n3ccnc3-c3ccccc3F)nc2N1C1CCC1 [PCT Example 49, reference compound] :: 6.38
4. CC[C@@H]1c2nncn2-c2cnc(-n3ccnc3-c3ccc(F)cc3)nc2N1C1CCC1 [Example 7] :: 5.54
5. CC[C@@H]1c2nncn2-c2cnc(-n3ccnc3-c3ccccc3)nc2N1C1CCC1 [Example 3] :: 6.38
6. CC[C@@H]1C(=O)N(C)c2cnc(-n3ccnc3-c3ccc(F)c(F)c3)nc2N1C1CCC1 [PCT Example 48, reference compound] :: 5.37
7. CC[C@@H]1c2nncn2-c2cnc(-n3ccnc3-c3ccc(F)c(F)c3)nc2N1C1CCC1 [Example 1] :: 5.36
